Tested on: Blood
Test: Drug level in C57BL/6NT PrCP knock out mouse blood at 100 mg/kg, po
Format: ADME, organism-based
Parameters: dose 100 mg/kg, route oral
Settings: in vivo, read-out: Activity
Observable: concentration (nM)
Output spec: scalar in nM, unitless text.

Exercise: Looking for the measured concentration of `C[C@@H](c1ccc(-c2ccccc2)cc1)[C@H](NC(=O)C(C)(C)N)C(=O)N1CCC[C@H]1c1nc2cc(Cl)c(Cl)cc2[nH]1` , can you help?
Key: 430

###

Attribute: Vd
Experiment: Volume of distribution in mouse
Assay type: ADME, organism-based
Details: in vivo
Output spec: scalar in L/kg, unitless text.

These recorded examples may help you get a feel for the data.
Exercise: Looking for the measured Vd of `N#Cc1cccc(-c2ccc(CCC(=O)N3C[C@H](O)C[C@H]3c3nc(-c4cccc(Cl)c4)c[nH]3)cc2)c1` , can you help?
Key: 2.2

Exercise: Looking for the measured Vd of `Cc1cccc2[nH]c([C@@H]3[C@@H]4C[C@@H]4CN3C(=O)COc3ccc(-c4ccccc4)cc3)nc12` , can you help?
Key: 2.3

Exercise: Looking for the measured Vd of `C[C@@H](c1ccc(-c2ccccc2)cc1)[C@H](NC(=O)C(C)(C)N)C(=O)N1CCC[C@H]1c1nc2cc(Cl)c(Cl)cc2[nH]1` , can you help?
Key: 4.4

More entries:
Exercise: Looking for the measured Vd of `CC(C)(N)CC(=O)N[C@@H](Cc1ccc(-c2ccccc2)cc1)C(=O)N1CCC[C@H]1c1nc2cc(Cl)c(Cl)cc2[nH]1` , can you help?
Key: 6.8

###

Experiment: Oral bioavailability in mouse
Type: ADME, organism-based
Settings: in vivo
Observable: bioavailability

These recorded examples may help you get a feel for the data.
Exercise: Looking for the measured bioavailability of `CC(C)(N)C(=O)N[C@@H](Cc1ccc(-c2ccccc2)cc1)C(=O)N1CCC[C@H]1c1ncc(C(C)(C)C)[nH]1` , can you help?
Key: 6%

Exercise: Looking for the measured bioavailability of `CC(C)(Cc1ccc(-c2cccc(Cl)c2Cl)cc1)C(=O)N1CC(F)(F)C[C@H]1c1ncc(-c2cccc(Br)c2)[nH]1` , can you help?
Key: 5%

Exercise: Looking for the measured bioavailability of `CC(C)(O)C(=O)N[C@@H](Cc1ccc(-c2ccccc2)cc1)C(=O)N1CCC[C@H]1c1ncc(C(C)(C)C)[nH]1` , can you help?
Key: 0%

Here is another compound to look at.
Exercise: Looking for the measured bioavailability of `C[C@@H](c1ccc(-c2ccccc2)cc1)[C@H](NC(=O)C(C)(C)N)C(=O)N1CCC[C@H]1c1nc2cc(Cl)c(Cl)cc2[nH]1` , can you help?
Key: 13%

###

Biological target: Lysosomal Pro-X carboxypeptidase (Mus musculus, UniProt Q7TMR0)
Sequence (Q7TMR0 whole entry): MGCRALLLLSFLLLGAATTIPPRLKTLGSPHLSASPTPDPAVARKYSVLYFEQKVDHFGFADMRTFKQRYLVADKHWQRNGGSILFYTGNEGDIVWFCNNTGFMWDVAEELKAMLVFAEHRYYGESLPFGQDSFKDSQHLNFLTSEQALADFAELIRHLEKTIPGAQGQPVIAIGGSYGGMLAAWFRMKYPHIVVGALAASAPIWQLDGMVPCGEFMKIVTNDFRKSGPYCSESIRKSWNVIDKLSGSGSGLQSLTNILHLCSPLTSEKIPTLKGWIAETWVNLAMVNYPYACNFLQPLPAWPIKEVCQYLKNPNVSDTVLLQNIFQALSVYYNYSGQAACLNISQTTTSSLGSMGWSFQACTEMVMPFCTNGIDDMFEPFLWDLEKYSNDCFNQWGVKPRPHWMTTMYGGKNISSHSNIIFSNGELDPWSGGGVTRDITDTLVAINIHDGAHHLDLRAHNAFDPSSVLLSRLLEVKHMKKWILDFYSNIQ
Experiment: Inhibition of mouse PrCP by FRET in presence of 1% mouse serum albumin
Attribute: pIC50
Keep in mind that pIC50 stands for -log10 of concentration in molar terms.

These recorded examples may help you get a feel for the data.
Exercise: Looking for the measured pIC50 of `C[C@@H](c1ccccc1)[C@H](NC(=O)C(C)(C)N)C(=O)N1CCC[C@H]1c1nc2cc(Cl)c(Cl)cc2[nH]1` , can you help?
Key: 7.22

Exercise: Looking for the measured pIC50 of `C[C@@H](c1ccccc1)[C@H](NC(=O)C(C)(C)O)C(=O)N1CCC[C@H]1c1nc2cc(Cl)c(Cl)cc2[nH]1` , can you help?
Key: 7.01

Here is another compound to look at.
Exercise: Looking for the measured pIC50 of `C[C@@H](c1ccc(-c2ccccc2)cc1)[C@H](NC(=O)C(C)(C)N)C(=O)N1CCC[C@H]1c1nc2cc(Cl)c(Cl)cc2[nH]1` , can you help?
Key: 8.10

###

Target: Lysosomal Pro-X carboxypeptidase (Mus musculus, UniProt Q7TMR0)
Experiment: Inhibition of mouse PrCP by FRET
Observable: pIC50
Keep in mind that pIC50 stands for -log10 of concentration in molar terms.

Exercise: Looking for the measured pIC50 of `C[C@@H](c1ccccc1)[C@H](NC(=O)C(C)(C)N)C(=O)N1CCC[C@H]1c1nc2cc(Cl)c(Cl)cc2[nH]1` , can you help?
Key: 7.49

More entries:
Exercise: Looking for the measured pIC50 of `CC(C)(N)C(=O)N[C@@H](Cc1ccc(-c2ccccc2)cc1)C(=O)N1CCC[C@H]1c1ncc(C(C)(C)C)[nH]1` , can you help?
Key: 7.39

Exercise: Looking for the measured pIC50 of `C[C@@H](c1ccc(-c2ccccc2)cc1)[C@H](NC(=O)C(C)(C)N)C(=O)N1CCC[C@H]1c1nc2cc(Cl)c(Cl)cc2[nH]1` , can you help?
Key: 8.70

Exercise: Looking for the measured pIC50 of `CC(C)(O)C(=O)N[C@@H](Cc1ccc(-c2ccccc2)cc1)C(=O)N1CCC[C@H]1c1ncc(C(C)(C)C)[nH]1` , can you help?
Key: 7.80

Exercise: Looking for the measured pIC50 of `COc1ccc(C[C@H](NC(=O)C(C)(C)N)C(=O)N2CC[C@H]2c2nc3cc(Cl)c(Cl)cc3[nH]2)cc1` , can you help?
Key: 6.60

Exercise: Looking for the measured pIC50 of `C[C@@H](c1ccccc1)[C@H](NC(=O)C(C)(C)O)C(=O)N1CCC[C@H]1c1nc2cc(Cl)c(Cl)cc2[nH]1` , can you help?
Key: 7.54

Exercise: Looking for the measured pIC50 of `O=C(CCc1ccc(-c2ccccc2)cc1)N1CCC[C@H]1c1ncc(-c2cccc(F)c2)[nH]1` , can you help?
Key: 6.06

Exercise: Looking for the measured pIC50 of `CC(C)(N)C(=O)N[C@@H](Cc1ccc(-c2ccccc2)cc1)C(=O)N1CCC[C@H]1c1nc2cc(Cl)c(Cl)cc2[nH]1` , can you help?
Key: 7.82

###

Assay: Oral bioavailability in mouse
Type: ADME, organism-based
Details: in vivo
Observable: bioavailability (%)
Output spec: scalar in %, unitless text.

These recorded examples may help you get a feel for the data.
Exercise: Looking for the measured bioavailability of `Cc1ccccc1-c1c[nH]c([C@@H]2CCCN2C(=O)COc2ccc(-c3ccccc3)cc2)n1` , can you help?
Key: 49

Exercise: Looking for the measured bioavailability of `Cn1cc(-c2ccc(C[C@H](NC(=O)C(C)(C)N)C(=O)N3CCC[C@H]3c3nc4cc(Cl)c(Cl)cc4[nH]3)cc2)ccc1=O` , can you help?
Key: 0

Exercise: Looking for the measured bioavailability of `CC(C)(N)C(=O)N[C@@H](Cc1ccc(Cl)cc1)C(=O)N1CCC[C@H]1c1nc2cc(Cl)c(Cl)cc2[nH]1` , can you help?
Key: 100

More entries:
Exercise: Looking for the measured bioavailability of `C[C@@H](c1ccccc1)[C@H](NC(=O)C(C)(C)N)C(=O)N1CCC[C@H]1c1nc2cc(Cl)c(Cl)cc2[nH]1` , can you help?
Key: 41

###

Experiment: Clearance in mouse
Type: ADME, organism-based
Details: in vivo
Attribute: log10(clearance)
Plainly stated, the numbers are log10 of clearance given in mL/min/kg.

These recorded examples may help you get a feel for the data.
Exercise: Looking for the measured log10(clearance) of `C[C@@H](c1ccccc1)[C@H](NC(=O)C(C)(C)O)C(=O)N1CCC[C@H]1c1nc2cc(Cl)c(Cl)cc2[nH]1` , can you help?
Key: 1.86

Exercise: Looking for the measured log10(clearance) of `CC(C)(CN)C(=O)N[C@@H](Cc1ccc(-c2ccccc2)cc1)C(=O)N1CCC[C@H]1c1nc2cc(Cl)c(Cl)cc2[nH]1` , can you help?
Key: 1.36

Exercise: Looking for the measured log10(clearance) of `CC(C)(O)C(=O)N[C@@H](Cc1ccc(-c2ccccc2)cc1)C(=O)N1CCC[C@H]1c1nc2cc(F)c(F)cc2[nH]1` , can you help?
Key: 1.59

Exercise: Looking for the measured log10(clearance) of `CC(C)(O)C(=O)N[C@@H](Cc1ccc(-c2ccccc2)cc1)C(=O)N1CCC[C@H]1c1ncc(C(C)(C)C)[nH]1` , can you help?
Key: 2.07

Exercise: Looking for the measured log10(clearance) of `C[C@@H](c1ccc(-c2ccccc2)cc1)[C@H](NC(=O)C(C)(C)N)C(=O)N1CCC[C@H]1c1nc2cc(Cl)c(Cl)cc2[nH]1` , can you help?
Key: 1.36

Exercise: Looking for the measured log10(clearance) of `CC(C)(Cc1ccc(-c2cccc(Cl)c2Cl)cc1)C(=O)N1CC(F)(F)C[C@H]1c1ncc(-c2cccc(Br)c2)[nH]1` , can you help?
Key: 1.18

More entries:
Exercise: Looking for the measured log10(clearance) of `Cc1ccccc1-c1c[nH]c([C@@H]2CCCN2C(=O)COc2ccc(-c3ccccc3)cc2)n1` , can you help?
Key: 1.73
